Assay: physchem
QUANTITY_NAME: solubility

**Query** Please supply the value of reported solubility for the item CC(C)Cc1ccc(C(C)C(=O)O)cc1 (stereo not shown)
**Result** 73 µg/mL
